- Target Under Test: Sodium-dependent dopamine transporter (Homo sapiens)
- Sequence (Q01959 whole entry): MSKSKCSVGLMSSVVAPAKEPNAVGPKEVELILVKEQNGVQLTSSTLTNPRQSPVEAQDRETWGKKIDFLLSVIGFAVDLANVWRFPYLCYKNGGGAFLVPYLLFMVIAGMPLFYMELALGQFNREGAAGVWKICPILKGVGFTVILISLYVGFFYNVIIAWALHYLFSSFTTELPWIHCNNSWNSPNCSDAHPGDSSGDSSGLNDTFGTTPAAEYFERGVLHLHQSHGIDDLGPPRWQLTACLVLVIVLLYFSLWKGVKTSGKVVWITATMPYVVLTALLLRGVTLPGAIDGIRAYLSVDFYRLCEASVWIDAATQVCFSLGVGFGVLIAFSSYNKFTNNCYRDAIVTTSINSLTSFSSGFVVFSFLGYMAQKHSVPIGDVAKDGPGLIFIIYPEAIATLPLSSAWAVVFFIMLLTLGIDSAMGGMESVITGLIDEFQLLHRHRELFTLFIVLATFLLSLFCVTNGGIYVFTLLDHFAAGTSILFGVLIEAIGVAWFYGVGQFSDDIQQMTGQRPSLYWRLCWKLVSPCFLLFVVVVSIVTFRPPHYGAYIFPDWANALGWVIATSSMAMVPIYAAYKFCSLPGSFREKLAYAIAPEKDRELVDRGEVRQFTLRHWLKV
- Protocol Description: GPCRScan assay: inhibition of DAT
- Parameters: radioligand conc. used [nm] 3.6 – 16.0, parental cells stable HEK
- Particulars: read-out: Ki
Assay Metric: Ki
Quick note: number first, unit second.

Look up Ki of `c1ccc(C2CCN(c3cnc4c(N5CCOCC5)nccn34)CC2)cc1` and report it.
4.13 µM

----------
- Target Under Test: High affinity 3',5'-cyclic-AMP phosphodiesterase 7A (Homo sapiens)
- Sequence (Q13946 whole entry): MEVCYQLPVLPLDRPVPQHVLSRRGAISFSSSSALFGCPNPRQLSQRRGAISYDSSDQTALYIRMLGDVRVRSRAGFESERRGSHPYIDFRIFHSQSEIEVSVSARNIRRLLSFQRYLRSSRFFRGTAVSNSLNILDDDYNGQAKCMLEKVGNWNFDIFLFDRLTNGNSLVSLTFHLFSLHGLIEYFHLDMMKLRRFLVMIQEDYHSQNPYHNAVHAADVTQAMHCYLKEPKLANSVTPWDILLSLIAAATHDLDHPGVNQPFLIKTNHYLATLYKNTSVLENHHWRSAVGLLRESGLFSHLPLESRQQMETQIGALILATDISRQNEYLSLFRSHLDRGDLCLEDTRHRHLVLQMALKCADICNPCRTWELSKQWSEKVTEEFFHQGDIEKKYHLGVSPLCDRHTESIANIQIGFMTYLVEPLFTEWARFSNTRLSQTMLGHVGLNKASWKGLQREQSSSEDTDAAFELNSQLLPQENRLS
Assay Metric: Ki (µM)
Reply numerically in µM, unit not repeated.

Look up and report measured Ki (High affinity 3',5'-cyclic-AMP phosphodiesterase 7A (Homo sapiens)) for the following molecule: `COCCc1ccc(-c2c(C)nc3c(N4CCOCC4)ccnn23)cn1`
23

----------
- Target Under Test: UniProt:Q14432
Assay Metric: pKi
Here pKi is given on a logarithmic scale as minus log10 of the concentration in mol/L.

Look up and report measured pKi (UniProt:Q14432) for the following molecule: COCCc1ccc(-c2c(C)nc3c(N4CCOCC4)ccnn23)cn1 [JNJ-42396302]
4.31

----------
- Target Under Test: 5-hydroxytryptamine receptor 7 (Homo sapiens, UniProt P34969)
- Sequence (P34969 whole entry): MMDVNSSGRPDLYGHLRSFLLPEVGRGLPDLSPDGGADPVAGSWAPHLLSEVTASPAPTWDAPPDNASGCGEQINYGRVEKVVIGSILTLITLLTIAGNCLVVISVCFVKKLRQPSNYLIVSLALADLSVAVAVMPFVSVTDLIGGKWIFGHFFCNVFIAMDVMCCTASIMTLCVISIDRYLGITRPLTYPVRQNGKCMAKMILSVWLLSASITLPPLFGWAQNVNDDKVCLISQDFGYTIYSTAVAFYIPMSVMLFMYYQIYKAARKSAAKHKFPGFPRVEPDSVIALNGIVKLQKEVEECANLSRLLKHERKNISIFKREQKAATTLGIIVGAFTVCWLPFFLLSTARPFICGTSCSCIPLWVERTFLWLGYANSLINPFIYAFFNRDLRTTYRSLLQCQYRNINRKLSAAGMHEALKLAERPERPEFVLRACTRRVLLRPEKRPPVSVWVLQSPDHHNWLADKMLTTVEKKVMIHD
Assay Metric: Ki (µM)
Reply numerically in µM, unit not repeated.

Look up Ki of COCCc1ccc(-c2c(C)nc3c(N4CCOCC4)ccnn23)cn1 [JNJ-42396302] and report it.
8.74

----------
- Target Under Test: UniProt:Q9HCR9
- Sequence (Q9HCR9 whole entry): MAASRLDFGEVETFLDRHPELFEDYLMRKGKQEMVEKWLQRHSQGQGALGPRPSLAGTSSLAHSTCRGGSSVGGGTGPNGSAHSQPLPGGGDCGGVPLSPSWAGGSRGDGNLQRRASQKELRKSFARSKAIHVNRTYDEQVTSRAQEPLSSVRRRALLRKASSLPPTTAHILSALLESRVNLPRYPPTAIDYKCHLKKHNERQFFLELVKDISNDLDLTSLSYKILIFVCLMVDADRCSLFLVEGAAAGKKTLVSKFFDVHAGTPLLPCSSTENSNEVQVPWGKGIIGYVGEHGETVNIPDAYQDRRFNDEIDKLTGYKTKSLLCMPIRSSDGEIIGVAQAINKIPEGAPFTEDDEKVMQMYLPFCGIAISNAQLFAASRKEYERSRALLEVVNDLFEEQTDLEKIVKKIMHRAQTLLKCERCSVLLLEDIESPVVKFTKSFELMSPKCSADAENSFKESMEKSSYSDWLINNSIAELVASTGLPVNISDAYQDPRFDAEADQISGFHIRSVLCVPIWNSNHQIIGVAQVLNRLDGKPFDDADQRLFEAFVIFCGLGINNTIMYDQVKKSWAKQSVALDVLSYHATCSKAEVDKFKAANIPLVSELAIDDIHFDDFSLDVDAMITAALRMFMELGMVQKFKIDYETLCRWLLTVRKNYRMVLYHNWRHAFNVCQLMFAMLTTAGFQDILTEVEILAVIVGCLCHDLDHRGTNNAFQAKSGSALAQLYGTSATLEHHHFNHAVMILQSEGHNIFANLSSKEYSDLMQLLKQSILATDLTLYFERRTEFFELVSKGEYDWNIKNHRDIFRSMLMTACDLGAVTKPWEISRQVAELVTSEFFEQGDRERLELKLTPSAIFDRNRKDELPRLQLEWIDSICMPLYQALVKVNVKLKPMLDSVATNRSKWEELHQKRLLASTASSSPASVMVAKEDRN
Assay Metric: pKi
Here pKi is given on a logarithmic scale as minus log10 of the concentration in mol/L.

Look up and report measured pKi (UniProt:Q9HCR9) for the following compound: COCCc1ccc(-c2c(C)nc3c(N4CCOCC4)ccnn23)cn1 [JNJ-42396302]
4.34

----------
- Target Under Test: Alpha-2B adrenergic receptor (Homo sapiens)
- Sequence (P18089 whole entry): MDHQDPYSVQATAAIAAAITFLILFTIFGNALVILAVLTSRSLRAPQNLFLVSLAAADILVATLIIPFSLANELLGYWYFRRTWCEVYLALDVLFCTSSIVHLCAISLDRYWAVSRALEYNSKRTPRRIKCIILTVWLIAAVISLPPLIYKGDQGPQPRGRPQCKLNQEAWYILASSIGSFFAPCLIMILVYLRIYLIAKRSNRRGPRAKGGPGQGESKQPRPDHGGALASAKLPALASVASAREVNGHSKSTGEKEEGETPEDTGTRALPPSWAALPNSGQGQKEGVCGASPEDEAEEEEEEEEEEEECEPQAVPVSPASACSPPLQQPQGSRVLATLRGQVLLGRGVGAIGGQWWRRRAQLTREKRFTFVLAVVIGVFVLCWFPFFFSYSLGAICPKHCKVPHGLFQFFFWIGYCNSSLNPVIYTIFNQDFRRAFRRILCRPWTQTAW
pKi: −log10 of the molar value.
Assay Metric: pKi

Look up pKi of `COCCc1ccc(-c2c(C)nc3c(N4CCOCC4)ccnn23)cn1` and report it.
< 5.00

----------
- Target Under Test: cAMP and cAMP-inhibited cGMP 3',5'-cyclic phosphodiesterase 10A (Homo sapiens)
- Sequence (Q9Y233 whole entry): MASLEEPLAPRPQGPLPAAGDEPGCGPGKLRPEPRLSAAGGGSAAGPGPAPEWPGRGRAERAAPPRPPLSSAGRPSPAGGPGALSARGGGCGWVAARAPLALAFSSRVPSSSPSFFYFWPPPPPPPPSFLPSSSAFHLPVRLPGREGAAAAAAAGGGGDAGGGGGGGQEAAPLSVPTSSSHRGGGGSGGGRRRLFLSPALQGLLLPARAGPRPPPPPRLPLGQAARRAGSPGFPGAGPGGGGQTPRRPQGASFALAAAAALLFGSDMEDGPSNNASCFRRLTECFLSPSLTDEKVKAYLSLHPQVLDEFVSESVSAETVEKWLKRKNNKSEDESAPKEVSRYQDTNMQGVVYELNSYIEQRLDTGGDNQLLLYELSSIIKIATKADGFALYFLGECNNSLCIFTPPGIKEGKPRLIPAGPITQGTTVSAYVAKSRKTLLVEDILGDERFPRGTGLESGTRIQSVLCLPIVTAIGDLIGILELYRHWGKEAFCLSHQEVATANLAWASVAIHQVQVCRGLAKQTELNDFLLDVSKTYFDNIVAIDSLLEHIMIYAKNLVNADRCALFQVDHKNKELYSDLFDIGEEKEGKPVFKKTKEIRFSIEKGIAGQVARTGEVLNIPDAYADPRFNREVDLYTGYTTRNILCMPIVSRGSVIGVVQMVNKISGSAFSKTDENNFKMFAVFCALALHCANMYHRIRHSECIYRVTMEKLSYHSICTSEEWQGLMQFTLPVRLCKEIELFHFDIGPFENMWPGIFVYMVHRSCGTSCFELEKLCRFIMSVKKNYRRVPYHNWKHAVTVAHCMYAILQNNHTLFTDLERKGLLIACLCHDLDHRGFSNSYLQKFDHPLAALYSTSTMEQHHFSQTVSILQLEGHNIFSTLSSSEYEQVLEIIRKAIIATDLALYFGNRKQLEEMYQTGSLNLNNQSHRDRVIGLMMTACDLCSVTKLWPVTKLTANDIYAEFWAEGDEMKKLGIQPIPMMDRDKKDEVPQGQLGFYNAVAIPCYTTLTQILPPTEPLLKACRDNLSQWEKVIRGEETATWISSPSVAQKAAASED
- Protocol Description: hPDE10A2 PDE scan
Assay Metric: Ki (nM)
Reply numerically in nM, unit not repeated.

Look up Ki of `COCCc1ccc(-c2c(C)nc3c(N4CCOCC4)ccnn23)cn1` and report it.
13

----------
- Target Under Test: Dual specificity calcium/calmodulin-dependent 3',5'-cyclic nucleotide phosphodiesterase 1B (Homo sapiens)
- Sequence (Q01064 whole entry): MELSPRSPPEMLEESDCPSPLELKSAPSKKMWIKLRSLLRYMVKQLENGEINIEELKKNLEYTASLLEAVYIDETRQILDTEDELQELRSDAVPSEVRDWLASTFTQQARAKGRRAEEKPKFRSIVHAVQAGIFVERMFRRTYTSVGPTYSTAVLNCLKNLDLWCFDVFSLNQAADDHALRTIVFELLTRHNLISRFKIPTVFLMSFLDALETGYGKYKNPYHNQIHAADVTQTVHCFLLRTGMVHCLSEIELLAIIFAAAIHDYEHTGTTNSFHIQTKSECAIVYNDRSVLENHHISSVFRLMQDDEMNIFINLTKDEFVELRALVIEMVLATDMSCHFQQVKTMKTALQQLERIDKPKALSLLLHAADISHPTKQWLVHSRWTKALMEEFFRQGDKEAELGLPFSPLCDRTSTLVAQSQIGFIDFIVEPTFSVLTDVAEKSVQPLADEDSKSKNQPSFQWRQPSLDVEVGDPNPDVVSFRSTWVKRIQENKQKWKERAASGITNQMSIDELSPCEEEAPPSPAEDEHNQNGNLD
- Protocol Description: hPDE1B1 PDE scan
Assay Metric: pKi
Here pKi is given on a logarithmic scale as minus log10 of the concentration in mol/L.

Look up pKi of `COCCc1ccc(-c2c(C)nc3c(N4CCOCC4)ccnn23)cn1` and report it.
5.47

----------
- Target Under Test: Rod cGMP-specific 3',5'-cyclic phosphodiesterase subunit alpha (Homo sapiens, UniProt P16499)
- Sequence (P16499 whole entry): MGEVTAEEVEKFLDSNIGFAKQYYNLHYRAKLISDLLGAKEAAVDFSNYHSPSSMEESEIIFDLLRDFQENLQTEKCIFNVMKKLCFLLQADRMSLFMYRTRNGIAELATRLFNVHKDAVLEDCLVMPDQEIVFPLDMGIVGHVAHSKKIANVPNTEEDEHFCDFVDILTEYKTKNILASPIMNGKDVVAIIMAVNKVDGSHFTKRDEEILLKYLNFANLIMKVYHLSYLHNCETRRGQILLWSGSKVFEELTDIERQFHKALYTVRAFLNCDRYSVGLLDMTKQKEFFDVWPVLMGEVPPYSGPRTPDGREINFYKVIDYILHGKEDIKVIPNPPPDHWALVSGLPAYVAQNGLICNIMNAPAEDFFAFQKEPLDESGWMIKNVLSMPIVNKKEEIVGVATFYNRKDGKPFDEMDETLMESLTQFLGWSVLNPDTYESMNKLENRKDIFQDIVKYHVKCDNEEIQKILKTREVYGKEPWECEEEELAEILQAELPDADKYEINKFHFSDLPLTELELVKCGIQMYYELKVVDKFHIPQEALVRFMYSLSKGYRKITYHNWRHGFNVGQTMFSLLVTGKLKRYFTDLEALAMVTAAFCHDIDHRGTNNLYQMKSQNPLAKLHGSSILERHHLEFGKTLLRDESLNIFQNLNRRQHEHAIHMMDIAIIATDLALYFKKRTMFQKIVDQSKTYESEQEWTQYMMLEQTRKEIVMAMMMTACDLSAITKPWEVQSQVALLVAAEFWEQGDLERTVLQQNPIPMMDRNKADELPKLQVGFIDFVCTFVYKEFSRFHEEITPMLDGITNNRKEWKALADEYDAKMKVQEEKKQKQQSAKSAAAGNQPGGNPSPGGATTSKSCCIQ
- Protocol Description: hPDE6AB PDE scan
Assay Metric: Ki (µM)
Reply numerically in µM, unit not repeated.

Look up Ki of `COCCc1ccc(-c2c(C)nc3c(N4CCOCC4)ccnn23)cn1` and report it.
85

----------
- Target Under Test: High affinity cGMP-specific 3',5'-cyclic phosphodiesterase 9A (Homo sapiens, UniProt O76083)
Assay Metric: pKi
Here pKi is given on a logarithmic scale as minus log10 of the concentration in mol/L.

Look up pKi of `COCCc1ccc(-c2c(C)nc3c(N4CCOCC4)ccnn23)cn1` and report it.
4.48
